Cited source: patent US6525001B1

Tested on: johnsongrass (Sorghum halepense)
ASSAY PROTOCOL: Test C
Format: in vivo
CONDITION NOTES: PREEMERGENCE, Rate 35 g/ha
Listed molecules paired with reported Plant response rating, Johnsongrass
Could you keep your reply to the number by itself?

Example entries begin here.
INSERT INTO assay_data (molecule, assay_metric, quantitative_result) VALUES
  ('Cc1cnc(-c2ccc(C(F)(F)F)cc2)nc1Cn1ccc(C(F)(F)F)n1', 'Plant response rating, Johnsongrass', 65),
  ('Cc1cnc(-n2cnc(C(F)(F)F)n2)nc1Cc1cccc(C(F)(F)F)c1', 'Plant response rating, Johnsongrass', 10),
  ('CCc1cnc(-n2ccc(C(F)(F)F)n2)nc1Cc1cccc(C(F)(F)F)c1', 'Plant response rating, Johnsongrass', 5),
  ('Cc1cnc(-c2ccc(C(F)(F)F)cc2)nc1Cc1cccc(OC(F)(F)F)c1', 'Plant response rating, Johnsongrass', 35),
  ('COc1cnc(-c2ccc(C(F)(F)F)cc2)nc1Cc1cccc(C(F)(F)F)c1', 'Plant response rating, Johnsongrass', 5);

Next, consider the following molecule.
Supply measured Plant response rating, Johnsongrass of Cc1cnc(-c2ccc(C(F)(F)F)cc2)nc1C(Cl)c1cccc(C(F)(F)F)c1 (racemic) in your reply.
0
